Biological target: Peroxisome proliferator-activated receptor gamma (Homo sapiens)
Experiment: ATG_PPARg_TRANS: Attagene TRANS-FACTORIAL HepG2 Assay for human Peroxisome Proliferator-activated Receptor-gamma (PPARg) (AID 2283007)
Method: ATG_TRANS is a cell-based, multiplexed-readout assay that uses HepG2, a human liver cell line, with measurements taken at 24 hours after chemical dosing in a 24-well plate.ATG_PPARg_TRANS is one of 30 assay component(s) measured or calculated from the ATG_TRANS assay. […] This assay endpoint, ATG_PPARg_TRANS, was analyzed in the positive analysis fitting direction relative to DMSO as the negative control and baseline of activity. […]
Inconclusive results are not listed. Activity calls are given as the source filed them. Rule for the calls: active = hit-call score of the fitted dose curve at least 0.9, where 1 is the maximum; inconclusive = response in the unintended direction; inactive = score below 0.9.
Return exactly one item of true (1) for active, false (0) for inactive

What did this assay record as the result for O=S1OCC2C(CO1)C1(Cl)C(Cl)=C(Cl)C2(Cl)C1(Cl)Cl (stereo unspecified) ?
false (0)

What did this assay record as the result for `CCCN(CCC)c1c([N+](=O)[O-])cc(C(F)(F)F)cc1[N+](=O)[O-]` ?
false (0)

What did this assay record as the result for CCOC1Oc2ccc(OS(C)(=O)=O)cc2C1(C)C (stereo unspecified) ?
false (0)

What did this assay record as the result for CCC(C)(NC(=O)c1cc(Cl)c(C)c(Cl)c1)C(=O)CCl (stereo unspecified) ?
true (1)

What did this assay record as the result for CC1(c2ccc(Oc3ccccc3)cc2)OC(=O)N(Nc2ccccc2)C1=O (stereo unspecified) ?
false (0)

What did this assay record as the result for `COP(=O)(OC)OC=C(Cl)Cl` ?
false (0)

----------
read-out: Cytochrome P450 4A22 (Homo sapiens) (UniProt Q5TCH4); assay: LTEA_HepaRG_CYP4A22: Life Technologies and Expression Analysis (LTEA) Assay for Cytochrome P450 4A22 (CYP4A22) using HepaRG (AID 2283495); details: mRNA level, 48 h; actives raise or lower the signal
Activity calls are given as the source filed them. Rule for the calls: active = hit-call score of the fitted dose curve at least 0.9, where 1 is the maximum; inactive = score below 0.9.
Return exactly one item of Yes (active), No (inactive)

What did this assay record as the result for `O=S(=O)(O)C(F)(F)C(F)(F)C(F)(F)C(F)(F)C(F)(F)C(F)(F)C(F)(F)C(F)(F)F` ?
Yes

What did this assay record as the result for `COP(=S)(OC)Oc1ccc(SC)c(C)c1` ?
No

What did this assay record as the result for CC(C)(C)C(O)/C(=C\c1ccc(Cl)cc1Cl)n1cncn1 (stereo unspecified) ?
Yes

What did this assay record as the result for `CC(C)N(C(=O)COc1nnc(C(F)(F)F)s1)c1ccc(F)cc1` ?
No

What did this assay record as the result for `CNC(=O)Oc1ccccc1OC(C)C` ?
No

What did this assay record as the result for CC1(c2ccc(Oc3ccccc3)cc2)OC(=O)N(Nc2ccccc2)C1=O (stereo unspecified) ?
Yes

----------
read-out: CD69, CD69 (gene 969); assay: BSK_SAg_CD69: BioMAP Diversity Plus: SAg Assay for CD69 Biomarker Activity (AID 2283089); conditions: primary human HUVEC with PBMC; actives raise or lower the signal
Active and inactive are the calls of the source. Rule for the calls: active = hit-call score of the fitted dose curve at least 0.9, where 1 is the maximum; inactive = score below 0.9.
Return exactly one item of 1 = active, 0 = inactive

What did this assay record as the result for CC1(C)C(C=C(Cl)Cl)C1C(=O)OC(C#N)c1ccc(F)c(Oc2ccccc2)c1 (stereo not given) ?
0

What did this assay record as the result for `CCS(=O)(=O)c1cccnc1S(=O)(=O)NC(=O)Nc1nc(OC)cc(OC)n1` ?
0

What did this assay record as the result for `CCCN(CCOc1c(Cl)cc(Cl)cc1Cl)C(=O)n1ccnc1` ?
1

What did this assay record as the result for `O=C(O)CCCOc1ccc(Cl)cc1Cl` ?
0

What did this assay record as the result for CC(C)(C)C(O)C(Oc1ccc(Cl)cc1)n1cncn1 (stereo not given) ?
0

What did this assay record as the result for `COc1nn(CSP(=S)(OC)OC)c(=O)s1` ?
0

What did this assay record as the result for `O=[N+]([O-])c1c(Cl)c(Cl)c(Cl)c(Cl)c1Cl` ?
0

What did this assay record as the result for `N#Cc1c(Cl)c(Cl)c(Cl)c(C#N)c1Cl` ?
1

What did this assay record as the result for `Cc1[nH]c(=O)n(C(C)(C)C)c(=O)c1Cl` ?
1

What did this assay record as the result for `COC(=O)c1ccccc1CS(=O)(=O)NC(=O)Nc1nc(OC)cc(OC)n1` ?
1

What did this assay record as the result for `O=C(O)C(F)(F)C(F)(F)C(F)(F)C(F)(F)C(F)(F)C(F)(F)C(F)(F)F` ?
0

What did this assay record as the result for `CCCN(CCC)c1c([N+](=O)[O-])cc(C(F)(F)F)cc1[N+](=O)[O-]` ?
1

What did this assay record as the result for `CCC(C)(C)C(=O)OC1=C(c2ccc(Cl)cc2Cl)C(=O)OC12CCCCC2` ?
1

What did this assay record as the result for CC(C)(C)C(O)/C(=C\c1ccc(Cl)cc1Cl)n1cncn1 (stereo not given) ?
1

What did this assay record as the result for `O=[N+]([O-])/N=C1\NCCN1Cc1ccc(Cl)nc1` ?
0

What did this assay record as the result for `CCOc1nc(NC)nc(NC(=O)NS(=O)(=O)c2ccccc2C(=O)OC)n1` ?
0

What did this assay record as the result for `CNC(=O)/C=C(\C)OP(=O)(OC)OC` ?
0

What did this assay record as the result for CCOC1Oc2ccc(OS(C)(=O)=O)cc2C1(C)C (stereo not given) ?
1

What did this assay record as the result for CCC(C)Nc1c([N+](=O)[O-])cc(C(C)(C)C)cc1[N+](=O)[O-] (stereo not given) ?
1

What did this assay record as the result for CCC(C)(NC(=O)c1cc(Cl)c(C)c(Cl)c1)C(=O)CCl (stereo not given) ?
1

What did this assay record as the result for CC[C@H](C)[C@H]1O[C@]2(C=C[C@@H]1C)C[C@@H]1C[C@@H](C/C=C(\C)[C@@H](O[C@H]3C[C@H](OC)[C@@H](O[C@H]4C[C@H](OC)[C@@H](O)[C@H](C)O4)[C@H](C)O3)[C@@H](C)/C=C/C=C3\CO[C@@H]4[C@H](O)C(C)=C[C@@H](C(=O)O1)[C@]34O)O2 (tested in a mixture with another compound) ?
1

What did this assay record as the result for `O=C(O)COc1ccc(Cl)cc1Cl` ?
0

What did this assay record as the result for `COc1cc(OC)nc(NC(=O)NS(=O)(=O)c2cc(NC=O)ccc2C(=O)N(C)C)n1` ?
0

What did this assay record as the result for `COP(=O)(OC)OC=C(Cl)Cl` ?
0

What did this assay record as the result for `CC(C)N(C(=O)COc1nnc(C(F)(F)F)s1)c1ccc(F)cc1` ?
0
